System: A549
Assay: Antiproliferative activity against human A549 cells assessed as cell growth inhibition measured after 48 hrs by MTT assay
Type: functional, cell-based
Conditions: A549, 48 h
pIC50: −log10 of the molar value.
Measurement Name: pIC50

Specify measured pIC50 for CC(=O)Oc1ccccc1C(=O)Nc1ncc([N+](=O)[O-])s1 [NITAZOXANIDE] .
< 4.30

----------
Experiment: Half life in Sprague-Dawley rat at 25 mg/kg, IG
Assay type: ADME, organism-based
Conditions: in vivo, po
Parameter half-life: see the listing below.
Give a bare numeral; the unit h is implied.

O=C(Nc1ncc([N+](=O)[O-])s1)c1ccc(C(F)(F)F)cc1 : 1.9

Specify measured half-life for CC(=O)Oc1ccccc1C(=O)Nc1ncc([N+](=O)[O-])s1 [NITAZOXANIDE] .
0.6

----------
Test: Cmax in Sprague-Dawley rat at 5 mg/kg, iv
Type: ADME, organism-based
Design: route intravenous, dose 5 mg/kg
Details: in vivo
Parameter Cmax: see the listing below.
Give a bare numeral; the unit ng/mL is implied.

CC(=O)Oc1ccccc1C(=O)Nc1ncc([N+](=O)[O-])s1 [NITAZOXANIDE] : 2800

Kindly consider the entry below.
Specify measured Cmax for O=C(Nc1ncc([N+](=O)[O-])s1)c1ccc(C(F)(F)F)cc1 .
28100

----------
Assay: Cytotoxicity against human HEK 293T cells assessed as cell growth inhibition at 10 uM measured after 48 hrs by MTT assay
Type: cell-based
Parameter inhibition at 48 h, 10 µM: see the listing below.
Give a bare numeral; the unit % is implied.

C[C@H](NC(=O)/C(C#N)=C/c1cccc(Br)n1)c1ccccc1 : 79.9
O=C(Nc1ncc([N+](=O)[O-])s1)c1ccccc1O [TIZOXANIDE] : -5.7

Kindly consider the entry below.
Specify measured inhibition at 48 h, 10 µM for CC(=O)Oc1ccccc1C(=O)Nc1ncc([N+](=O)[O-])s1 [NITAZOXANIDE] .
-3.3

----------
Experiment: Tmax in Sprague-Dawley rat at 25 mg/kg, IG
Type: ADME, organism-based
Conditions: in vivo, po
Measurement Name: Tmax (h)
Give a bare numeral; the unit h is implied.

O=C(Nc1ncc([N+](=O)[O-])s1)c1ccc(C(F)(F)F)cc1 : 4

Kindly consider the entry below.
Specify measured Tmax for CC(=O)Oc1ccccc1C(=O)Nc1ncc([N+](=O)[O-])s1 [NITAZOXANIDE] .
2

----------
Parameter cytotoxicity at 48 h, 10 µM: see the listing below.
Assay: Cytotoxicity against human HeLa cells assessed as inhibition of cell viability at 10 uM measured after 48 hrs by MTT assay
Assay type: cell-based
Settings: read-out: INH
Give a bare numeral; the unit % is implied.

Specify measured cytotoxicity at 48 h, 10 µM for O=C(Nc1ncc([N+](=O)[O-])s1)c1ccccc1O [TIZOXANIDE] .
12.7

Specify measured cytotoxicity at 48 h, 10 µM for O=C(Nc1ncc([N+](=O)[O-])s1)c1ccccc1Br .
-10.1

Specify measured cytotoxicity at 48 h, 10 µM for CC(=O)Oc1ccccc1C(=O)Nc1ncc([N+](=O)[O-])s1 [NITAZOXANIDE] .
19.4

Specify measured cytotoxicity at 48 h, 10 µM for O=C(Nc1ncc([N+](=O)[O-])s1)c1ccc(N2CCOCC2)cc1 .
50.6

----------
Experiment: Elimination Half life in Sprague-Dawley rat at 5 mg/kg, iv
Format: ADME, organism-based
Conditions: in vivo, read-out: beta t1/2 (converted)
Parameter half-life: see the listing below.
Give a bare numeral; the unit h is implied.

CC(=O)Oc1ccccc1C(=O)Nc1ncc([N+](=O)[O-])s1 [NITAZOXANIDE] : 0.3

Kindly consider the entry below.
Specify measured half-life for O=C(Nc1ncc([N+](=O)[O-])s1)c1ccc(C(F)(F)F)cc1 .
2.3

All figures here come from ChEMBL document CHEMBL4706740.
